# Ki per entry
Biological target: dengue 2 protease (Dengue virus type 2, UniProt P14340)
Construct: The active site of the dengue protease is in the N-terminal part of NS3
Sequence (P14340 1476-1653): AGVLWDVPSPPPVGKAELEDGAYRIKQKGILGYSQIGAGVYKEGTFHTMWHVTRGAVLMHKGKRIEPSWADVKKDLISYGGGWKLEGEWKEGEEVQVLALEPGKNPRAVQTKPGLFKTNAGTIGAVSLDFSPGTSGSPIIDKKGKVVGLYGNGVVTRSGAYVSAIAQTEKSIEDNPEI
Assay: Dengue 2 protease inhibition, hydrolysis of Z-RR-MCA
Source text: The active site of the dengue protease is in the N-terminal part of NS3 which is also a serine protease with catalytic triad Asp79-His51-Ser135, but requires […] (CF40) for activity; the inhibition reported here was studied on a […] (CF40-GGGGSGGGG-NS3; (SEQ ID NO:54)) which has also been structurally characterized [Erbel et al., 2006; Luo et al. 2008]. […]
Residues, ends and D or L forms follow the SMILES beside them.

molecule: CCCCCCCCCCCCCCCCNC(=O)[C@H](CCCCN)NC(=O)CNC(=O)[C@H](CCCCN)NC(=O)CCCCCCCCCCCCCCC [C16-KGK-C16, C15H31CO-KGK-NH—C16H33]
Ki (µM): 1.56

molecule: CCCCCCCCCCCCCCCCNC(=O)[C@H](CCCCN)NC(=O)CNC(=O)CNC(=O)CNC(=O)CNC(=O)[C@H](CCCCN)NC(=O)CCCCCCCCCCCCCCC [C16KG4KC16] (HELM PEPTIDE1{[CCCCCCCCCCCCCCCC(=O)[*:2]].K.G.G.G.G.K.[CCCCCCCCCCCCCCCCN[*:1]]}$$$$V2.0)
Ki (µM): 1.37

molecule: CCCCCCCCCCCCCCCCNC(=O)[C@H](CCCCN)NC(=O)CNC(=O)CNC(=O)CNC(=O)[C@H](CCCCN)NC(=O)CCCCCCCCCCCCCCC [C16-KGGGK-C16, C15H31CO-KGGGK-NH—C16H33] (HELM PEPTIDE1{[CCCCCCCCCCCCCCCC(=O)[*:2]].K.G.G.G.K.[CCCCCCCCCCCCCCCCN[*:1]]}$$$$V2.0)
Ki (µM): 2.5

molecule: CCCCCCCCCCCCCCCCNC(=O)[C@H](CCCNC(=N)N)NC(=O)[C@H](C)NC(=O)[C@H](CCCNC(=N)N)NC(=O)CCCCCCCCCCCCCCC [C16RARC16, n-C15H31C(O)-Arg-Ala-Arg-(n-C16H33).2TFA]
Ki (µM): 3.1

molecule: CCCCCCCCCCCCCCCCNC(=O)[C@H](CCCCN)NC(=O)[C@H](CCCCN)NC(=O)CCCCCCCCCCCCCCC [C16-KK-C16, C15H31CO-KK-NH—C16H33]
Ki (µM): 5.37

molecule: CCCCCCCCCCCCCCCCNC(=O)[C@H](CCCNC(=N)N)NC(=O)[C@H](C)NC(=O)[C@H](C)NC(=O)[C@H](C)NC(=O)[C@H](C)NC(=O)[C@H](CCCNC(=N)N)NC(=O)CCCCCCCCCCCCCCC [C16RA4RC16] (HELM PEPTIDE1{[CCCCCCCCCCCCCCCC(=O)[*:2]].R.A.A.A.A.R.[CCCCCCCCCCCCCCCCN[*:1]]}$$$$V2.0)
Ki (µM): 1.4

molecule: CCCCCCCCCCCCCCCCNC(=O)[C@H](CCCNC(=N)N)NC(=O)[C@H](C)NC(=O)[C@H](C)NC(=O)[C@H](C)NC(=O)[C@H](CCCNC(=N)N)NC(=O)CCCCCCCCCCCCCCC [C16RA3RC16] (HELM PEPTIDE1{[CCCCCCCCCCCCCCCC(=O)[*:2]].R.A.A.A.R.[CCCCCCCCCCCCCCCCN[*:1]]}$$$$V2.0)
Ki (µM): 1.3

molecule: CCCCCCCCCCCCNC(=O)[C@H](CCCCN)NC(=O)[C@H](C)NC(=O)[C@H](C)NC(=O)[C@H](CCCCN)NC(=O)CCCCCCCCCCC [C12KA2KC12] (HELM PEPTIDE1{[CCCCCCCCCCCC(=O)[*:2]].K.A.A.K.[CCCCCCCCCCCCN[*:1]]}$$$$V2.0)
Ki (µM): 11.6
